Origin of measurements: patent EP4755881A1

Item-by-item account of IC50
- assayed target: hLPAR1 (human lysophosphatidic acid receptor 1, Accession No.: NM_001401.4) (Homo sapiens, UniProt Q92633)
- Sequence (Q92633 whole entry): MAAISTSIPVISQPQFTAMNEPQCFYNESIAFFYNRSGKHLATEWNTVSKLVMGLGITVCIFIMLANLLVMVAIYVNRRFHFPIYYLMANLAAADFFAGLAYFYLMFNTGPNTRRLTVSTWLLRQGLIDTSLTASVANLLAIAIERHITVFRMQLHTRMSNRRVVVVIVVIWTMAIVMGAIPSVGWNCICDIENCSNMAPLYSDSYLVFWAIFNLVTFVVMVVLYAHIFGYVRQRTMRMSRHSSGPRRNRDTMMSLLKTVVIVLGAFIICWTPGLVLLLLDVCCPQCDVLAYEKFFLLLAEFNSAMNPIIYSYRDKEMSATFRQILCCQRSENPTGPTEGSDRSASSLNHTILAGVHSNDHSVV
- experiment notes: cell-based
- study conditions: read-out: LPAR1 inhibitory activity IC50; Table 1; FLIPR method, CHO-K1 cells overexpressing hLPAR1
State the answer as a number, implicitly in µM.

[[record]]
compound = "Cc1nc(-c2nnn(C)c2COC(=O)N(C)CC2CCC2)ccc1C#CC1(CC(=O)O)CC1 [compound 017]"
outcome_measure = "IC50"
value_observed = 0.0428


Exam item: Note IC50 for the compound shown: Cc1nc(-c2nnn(C)c2NC(=O)OC(C)CCCF)ccc1C#CC1(CC(=O)O)CC1 (racemic) [compound 280]
Marked response: 0.0757

* * *

- assayed target: hLPAR1 (human lysophosphatidic acid receptor 1, Accession No.: NM_001401.4) (Homo sapiens, UniProt Q92633)
- experiment notes: cell-based
- study conditions: Table 1; FLIPR method, CHO-K1 cells overexpressing hLPAR1; read-out: LPAR1 inhibitory activity IC50
- Protocol: The antagonist properties of the compounds in the present disclosure were determined using the FLIPR (Fluorometric Imaging Plate Reader) method in CHO-K1 cells (Chinese Hamster Ovary cells K1, ATCC) overexpressing hLPAR1 (human lysophosphatidic acid receptor 1, Accession No.: NM_001401.4). […]
Recorded IC50, one value per entry.
Numbers only; they are read as nM.

Answered examples (3):
[[record]]
molecule = "CCC[C@@H](C)OC(=O)Nc1c(-c2ccc(C#C[C@@H]3C[C@H]3C(=O)O)c(C)n2)nnn1C (mixture of isomers)"
outcome_measure = "IC50"
unit = "nM"
value_observed = 70

[[record]]
molecule = "Cc1nc(-c2onc(C)c2NC(=O)O[C@H](C)CC(C)(F)F)ccc1C#C[C@@H]1CCC[C@H]1C(=O)O"
outcome_measure = "IC50"
unit = "nM"
value_observed = 5.7

[[record]]
molecule = "Cc1nc(-c2nnn(C)c2NC(=O)OC(C)C2CCC2)ccc1C#CC1CC(F)(F)CC1C(=O)O (centres unmarked)"
outcome_measure = "IC50"
unit = "nM"
value_observed = 7


Exam item: Read off the recorded IC50 for CCC(F)(F)[C@@H](C)OC(=O)Nc1c(-c2ccc(C#C[C@@H]3CCC[C@H]3C(=O)O)c(C)n2)nnn1C (mixture of isomers) [219-A]
Marked response: 3.3

Exam item: Look up and state reported IC50 for Cc1nc(-c2nnn(C)c2NC(=O)OC(C)C2CCCC2)ccc1C#CC1(CC(=O)O)CC1 (centres unmarked)
Marked response: 18.7

Exam item: For the molecule Cc1nc(-c2nnn(C)c2NC(=O)O[C@H](C)c2ccccc2)ccc1C#C[C@@H]1CCCC[C@H]1C(=O)O (mixture of isomers) [027-A] , give its reported IC50.
Marked response: 2.6

Exam item: Output measured IC50 for this item: Cc1nc(-c2nnn(C)c2COC(=O)N(C)CC2CC2(F)F)ccc1C#CC1(CC(=O)O)CC1 (centres unmarked)
Marked response: 129

Exam item: Please report IC50 for the following molecule: `Cc1nc(-c2nnn(C)c2NC(=O)O[C@H](C)CC(C)(F)F)ccc1C#CC1(CC(=O)O)CCC1`
Marked response: 50.3

Exam item: Give me measured IC50, please, for this molecule: `Cc1nc(-c2nnn(C)c2COC(=O)N(C)C2CCCC2)ccc1C#CC1(CC(=O)O)CC1`
Marked response: 55.2

Exam item: // fetch IC50 given entry `Cc1nc(-n2nnc(C)c2NC(=O)O[C@H](C)c2ccccc2Cl)ccc1C#CC1(CC(=O)O)CC1`
Marked response: 42

Exam item: Give me measured IC50, please, for this molecule: Cc1nc(-c2nnn(C)c2NC(=O)OC(C)CC2CC2)ccc1C#CC1CCC1C(=O)O (single isomer, unassigned) [248-A]
Marked response: 18.1

Exam item: Provide one value: measured IC50 of `CCOCc1ccnc(NCc2c(-c3ccc(C#CC4(CC(=O)O)CC4)c(C)n3)nnn2C)n1`
Marked response: 203

Exam item: Kindly indicate its recorded IC50. Item: `CCC(F)(F)CN(C)C(=O)OCc1c(-c2ccc(C#CC3(CC(=O)O)CC3)c(C)n2)nnn1C`
Marked response: 157

Exam item: Give reported IC50 value for Cc1nc(-c2nnn(C)c2NC(=O)O[C@H](C)c2ccccc2Cl)ccc1C#C[C@@H]1CCCC[C@H]1C(=O)O (mixture of isomers) [031-B]
Marked response: 0.2
